system: A498 renal; test: NCI tumour cell line growth inhibition, 48 h
measurement-label: log10 of TGI (log10 of the value in µM)
Each number you see is log10 of TGI, and the unit inside the log is µM.

compound: Cc1ccnc2c1C(=O)C1=C(OC(C)(C)CC1O)C2=O (centres undefined)
recorded-number: 1.51
//
compound: O=Cc1ccc(-c2ccc(-c3ccc(CO)s3)o2)s1
recorded-number: -0.45
//
compound: CCOC(=O)CCC(NC(=O)c1ccc(NCc2ccc3nc(-c4ccccc4)c(Cl)nc3c2)cc1)C(=O)OCC (centres undefined)
recorded-number: 1.90
//
compound: O=C(NC1CCCCC1)c1ccc(Nc2ncnc3c2cnn3-c2ccccc2)cc1
recorded-number: 1.60
//
compound: N#CC(C#N)=C1CCCOc2c1ccc1ccccc21
recorded-number: 0.69
//
compound: Cc1c2c(C(N)=O)nccc2c(C)c2c1c1ccccc1n2Cc1ccccc1
recorded-number: 1.66

Q. Value lookup for log10 of TGI; key = COc1cc(/C=C/C(=O)C(C(=O)/C=C/c2ccc(OC(=O)CCNC34CC5CC(CC(C5)C3)C4)c(OC)c2)C(=O)CCNC23CC4CC(CC(C4)C2)C3)ccc1OC(=O)CCNC12CC3CC(CC(C3)C1)C2 (centres undefined)
A. 1.13

Q. Look up log10 of TGI for this compound: O=C1CC(=O)NC(=NN2C(=O)/C(=C/c3ccc(Cl)c(Cl)c3)N=C2c2ccccc2)N1
A. 1.80

Q. Entry under review: CCCn1cnc2c(SCc3ccc(Cl)cc3)nc(N)nc21 . Reported log10 of TGI?
A. 1.69

Q. Entry C/C(=N\NC(=S)N1CCCC1)c1nc2ncccc2[nH]1 has what log10 of TGI?
A. 1.43

Q. // log10 of TGI lookup, key: COc1ccc(-c2noc(N)c2-c2cc(OC)c3c(c2)OCO3)cc1
A. 0.88

Q. Recorded log10 of TGI for COc1ccc(C2c3cc4c(cc3OC(N3CCOCC3)C2C)OCO4)cc1 (centres undefined) , please?
A. 1.54

Q. // query log10 of TGI value for entry O=C1C(Br)=CC2(C=C1Br)CCNC1=C2C(=O)c2ncccc2C1=O
A. 0.42

Q. Please report the recorded log10 of TGI for Oc1c(Br)ccc2cccnc12 .
A. 1.71

---

test system: HCT-116 colon; assay: NCI tumour cell line growth inhibition, 48 h
Grouping rule (TGI): low: < 10 µM; middle: ≥ 10 µM and < 30 µM; high: ≥ 30 µM

Worked examples follow.
compound: CN(C)CCNC(=O)c1cccc2[nH]c(-c3ccccn3)nc12
category-label: high
--
compound: COc1cc2c(cc1OC)C1Cc3cc(OC)c(OC)cc3N1CC2 (stereo not given)
category-label: high
--
compound: O=C(CBr)c1ccc2cc(Br)c3ccccc3c2c1
category-label: high
--
compound: COc1ccc2c(c1)C(C)Cc1c(ncnc1-n1cnc3ccccc31)N2C (stereo not given)
category-label: middle
--
compound: NCCCOc1cc(Cl)ccc1NC(=O)c1cc2ccccc2cc1OCCCN
category-label: low

Q. Tag the class for O=C1c2ccc3c4ccccc4n(-c4ccccc4)c3c2C(=O)N1c1ccc(Cl)cc1
A. high

Q. Bin this entry: Cc1ccc(CSC(N)=Nc2ccccc2)cc1C
A. high

Q. Determine which band this compound sits in: O=C1CC(=O)NC(=NN2C(=O)/C(=C/c3ccc(Cl)c(Cl)c3)N=C2c2ccccc2)N1
A. high

Q. Categorize the following entry: O=c1cc(CF)[nH]c(=S)[nH]1
A. high

Q. Pick a category. Item: O=C1C(Br)=CC2(C=C1Br)CCNC1=C2C(=O)c2ncccc2C1=O
A. low

Q. Kindly state the category for this compound: Nc1c(S(=O)(=O)c2ccccc2)c2nc3ccccc3nc2n2c1nc1ccccc12
A. high
